# Experiment Description: superoxide lowering in aged yeast cells, pilot screen, validation compound set (AID 2706);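 note: yeast exposed to compound for one week at 30 degrees C before staining; 100% = mean of all compound wells on the same plate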
# Condition Notes: S. cerevisiae aging, superoxide DHE fluorescence; at 10 µM, hits give low values
Property Measured: superoxide response (% of plate) (%)
Dear colleague, please return just the value in %, with no unit written.

Inquiry: GET /values?readout=superoxide response (% of plate)&item= CC(=O)OCC(=O)[C@H]1CC[C@H]2[C@@H]3CC=C4C[C@@H](O)CC[C@]4(C)[C@H]3CC[C@]12C
Reply text: 99

Inquiry: GET /values?readout=superoxide response (% of plate)&item= CC(C)(C)C(=O)NC(=S)Nc1sc2c(c1C(N)=O)CCC2
Reply text: 109

Inquiry: GET /values?readout=superoxide response (% of plate)&item= COCCOC(=O)c1c(C)oc2ccc(OCc3cc(C(=O)OC)oc3C)cc12
Reply text: 93.4

Inquiry: GET /values?readout=superoxide response (% of plate)&item= CN(C)CCOc1ccccc1Cc1ccccc1
Reply text: 85.8

Inquiry: GET /values?readout=superoxide response (% of plate)&item= CC(=O)/C=C/c1ccc(C)o1
Reply text: 95.6

Inquiry: GET /values?readout=superoxide response (% of plate)&item= CN(C)c1cc(NC(=O)CN2CCOCC2)c2ccccc2n1
Reply text: 96.2

Inquiry: GET /values?readout=superoxide response (% of plate)&item= COCc1cc(=O)[nH]c(Nc2nc3ccccc3o2)n1
Reply text: 86.3

Inquiry: GET /values?readout=superoxide response (% of plate)&item= O=C(CCN1CCC(c2ccccc2)C1)c1ccc2c(c1)OCCO2 (stereo unspecified)
Reply text: 94

Inquiry: GET /values?readout=superoxide response (% of plate)&item= Cc1nc(N[C@@H](Cc2c[nH]c3ccccc23)C(=O)O)c2oc3ccccc3c2n1
Reply text: 104

Inquiry: GET /values?readout=superoxide response (% of plate)&item= CC(=O)OC[C@H]1O[C@@H](n2ncc(=O)[nH]c2=O)[C@H](OC(C)=O)[C@@H]1OC(C)=O
Reply text: 105

Inquiry: GET /values?readout=superoxide response (% of plate)&item= CCCN(CCC)S(=O)(=O)c1ccc(C(=O)O)cc1
Reply text: 104

Inquiry: GET /values?readout=superoxide response (% of plate)&item= Cn1nc(-c2ccccn2)nc2c(=O)n(C)c(=O)nc1-2
Reply text: 107

Inquiry: GET /values?readout=superoxide response (% of plate)&item= CCCCC[C@H](O)/C=C/[C@@H]1[C@@H](C/C=C\CCCC(=O)OC)[C@@H](O)C[C@H]1O
Reply text: 171

Inquiry: GET /values?readout=superoxide response (% of plate)&item= CNC[C@H](O)c1ccc(O)c(O)c1
Reply text: 108

Inquiry: GET /values?readout=superoxide response (% of plate)&item= O=C1C2C3C=CC(C4CC34)C2C(=O)N1/N=C/c1ccc(-c2ccc([N+](=O)[O-])cc2)o1 (stereo unspecified)
Reply text: 95.5

Inquiry: GET /values?readout=superoxide response (% of plate)&item= CCOC(=O)C1(CCCc2ccccc2)CCN(C2CCN(C(C)=O)CC2)CC1
Reply text: 103

Inquiry: GET /values?readout=superoxide response (% of plate)&item= Nc1nc2ccc(OC(F)(F)F)cc2s1
Reply text: 94.9

Inquiry: GET /values?readout=superoxide response (% of plate)&item= CC(C)Cc1nc(NCCN2CCOCC2)c(C#N)c2c1COC(C)(C)C2
Reply text: 93.4

Inquiry: GET /values?readout=superoxide response (% of plate)&item= CC[C@]1(O)C[C@@H]2CN(CCc3c([nH]c4ccccc34)[C@@](C(=O)OC)(c3cc4c(cc3OC)N(C)[C@H]3[C@@](O)(C(=O)OC)[C@H](OC(C)=O)[C@]5(CC)C=CCN6CC[C@]43[C@@H]65)C2)C1
Reply text: 86.7

Inquiry: GET /values?readout=superoxide response (% of plate)&item= CCC(C)NCCOCCOc1ccc(Cl)c2ccccc12 (stereo unspecified)
Reply text: 83.4

Inquiry: GET /values?readout=superoxide response (% of plate)&item= CCn1cc(C(=O)O)c(=O)c2cnc(N3CCNCC3)nc21
Reply text: 85.2

Hello, the source for this data is PubChem BioAssay, in case you need it.
